B1: CLK3 (parent)
chain: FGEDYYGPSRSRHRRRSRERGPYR

Variants of: B1
testSummary: protein stability index of a GFP-peptide fusion (GPS, HEK-293T) (PSI 1-6); higher = more stable;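 further: lentivirally expressed fusions sorted by FACS into six bins by GFP to DsRed ratio, PSI derived from sequencing read proportions per bin multiplied by bin number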
statedConditions: c terminus: a fixed tail appended
propertyName: protein stability index
Reply with just the number.

Reference set (4 entries):
| variantIdentifier | propertyName | recordedValue |
| --- | --- | --- |
| G21I | protein stability index | 2.93 |
| G21W | protein stability index | 4.06 |
| Y6L | protein stability index | 3.98 |
| R20F | protein stability index | 3.04 |

Returns the measured protein stability index for the input variant. Input: R10S
3

Returns the measured protein stability index for the input variant. Input: S17N
3.93

Returns the measured protein stability index for the input variant. Input: E19I
3.96

Returns the measured protein stability index for the input variant. Input: E19K
4.05

Returns the measured protein stability index for the input variant. Input: E3Y
4.08

Sourced from the supplement of paper PMC10567573
